targetOfAssay: hGLP1R (Homo sapiens)
Construct: expressed in transfected cells; host or cells: HEK-293 cells carrying a CRE-luciferase reporter gene
Sequence (P43220 24-463): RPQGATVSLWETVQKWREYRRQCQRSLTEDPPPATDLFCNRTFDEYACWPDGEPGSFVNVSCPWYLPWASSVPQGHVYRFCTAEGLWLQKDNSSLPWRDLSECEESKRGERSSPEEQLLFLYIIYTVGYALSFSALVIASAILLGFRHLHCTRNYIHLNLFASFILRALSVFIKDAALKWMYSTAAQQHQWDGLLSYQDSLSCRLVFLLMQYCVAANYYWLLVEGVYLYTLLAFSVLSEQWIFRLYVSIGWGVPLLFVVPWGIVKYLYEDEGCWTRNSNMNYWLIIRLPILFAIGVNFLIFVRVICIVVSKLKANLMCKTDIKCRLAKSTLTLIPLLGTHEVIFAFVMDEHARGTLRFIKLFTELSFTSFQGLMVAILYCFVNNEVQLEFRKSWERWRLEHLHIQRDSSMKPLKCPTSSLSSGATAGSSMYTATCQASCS
assayName: hGLP1R CreLuc reporter gene assay in 0.5% and 100% plasma
Format: cell-based
conditionInfo: CreLuc reporter gene assay, 100% human plasma; read-out: hGLP1R 100% hP
pEC50: −log10 of the molar value. Starred links: 1 amine or outer side, 2 acyl side, 3 side chain; linkers in the order of their positions; H or OH if unused. Non-standard residues stand in square brackets, D forms with d. Groups on a side chain read outwards from the residue. *: point of attachment. C20 diacid = O=C(O)CCCCCCCCCCCCCCCCCCC(=O)*; γGlu = O=C(O)[C@H](CCC(=O)[*:2])N[*:1]; εLys = N[C@@H](CCCCN[*:1])C(=O)[*:2]; AEEA = NCCOCCOCC(=O)O; Aib = CC(C)(N)C(=O)O
Below is a list of entries, each paired with its recorded pEC50 value.

{"substance": "H-Y[Aib]EGTFTSDYSI[Aib]LEKQAQ[Aib]AFVEWLIK([εLys-γGlu-γGlu-γGlu-γGlu-γGlu-γGlu-C20 diacid])GGPSSPESLRHYYNWLTRQRY-NH2 [Compound 73]", "pEC50": 8.32}
{"substance": "H-Y[Aib]EGTFTSDYSI[Aib]LEKQAQ[Aib]AFVEWLIK([εLys-γGlu-γGlu-γGlu-γGlu-γGlu-γGlu-C20 diacid])GGPSSGQS[Aib]RHYYNWLTRQRY-NH2 [Compound 44]", "pEC50": 8.67}
{"substance": "H-Y[Aib]EGTFTSDYSI[Aib]LEKQAQ[Aib]AFVEWLIK([εLys-γGlu-γGlu-γGlu-γGlu-γGlu-γGlu-C20 diacid])GGPSEGQSLRHYYNWLTRQRY-NH2 [Compound 227]", "pEC50": 8.51}
{"substance": "H-Y[Aib]EGTFTSDYSI[Aib]LEKQAQ[Aib]AFVEWLIK([εLys-γGlu-γGlu-γGlu-γGlu-γGlu-γGlu-C20 diacid])GGPSSGVSLRHYYNWLTRQRY-NH2 [Compound 96]", "pEC50": 8.67}
{"substance": "H-Y[Aib]EGTFTSDYSI[Aib]LEKQAQ[Aib]AFVQWLIK([AEEA-AEEA-γGlu-γGlu-γGlu-γGlu-C20 diacid])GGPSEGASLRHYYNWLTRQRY-NH2 [Compound 269]", "pEC50": 8.41}
